biological target: C3a (human, UniProt P01024 672-748); test: binding screen of Example 5; method and unit not stated
Sequence (P01024 672-748 limits assumed): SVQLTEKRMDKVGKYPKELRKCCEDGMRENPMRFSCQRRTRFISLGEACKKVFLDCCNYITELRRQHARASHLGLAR
Lab note - cut at -0.01 for binding relative to negative control mIgG2: y if strictly below, n if not.

>  <binder>
antibody 63A3 (antibody, V domains shown, Mouse hybridoma antibody) VH: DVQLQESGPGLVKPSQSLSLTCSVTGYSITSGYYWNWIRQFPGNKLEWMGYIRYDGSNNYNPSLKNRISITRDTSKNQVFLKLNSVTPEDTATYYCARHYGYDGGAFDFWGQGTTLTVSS VL: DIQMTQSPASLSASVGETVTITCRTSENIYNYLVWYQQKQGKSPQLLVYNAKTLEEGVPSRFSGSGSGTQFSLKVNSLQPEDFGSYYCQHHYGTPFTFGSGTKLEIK

>  <qualitative_label>
y

$$$$
>  <binder>
antibody 28C3 (antibody, V domains shown, Mouse hybridoma antibody) VH: QVQLQQSGPELVKPGASVKISCKASGYAFNSCWMNWVKQRPGKGLEWIGRIYPGDGDTNYNGKFKGKATLTADKSSTTAYMQLSSLTSEDSAVYFCAREGRNYGYEDYWGQGTTLTVSS VL: DIVLTQSPASLAVSLGQRATISCKASQSVDYDGDSYMNWYQQKPGQPPKLLIYAASDLESGIPARFSGSGSGTDFTLNIHPVEEEDAATYYCQQANEDPRTFGGGTKLEIK

>  <qualitative_label>
n

$$$$
>  <binder>
antibody 38G10 (antibody, V domains shown, Mouse hybridoma antibody; Parent of Hz38G10; also called parental 38G10 antibody) VH: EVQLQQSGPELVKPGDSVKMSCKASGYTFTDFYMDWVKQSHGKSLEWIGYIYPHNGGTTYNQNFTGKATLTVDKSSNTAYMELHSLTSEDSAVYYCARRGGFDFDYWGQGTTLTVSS VL: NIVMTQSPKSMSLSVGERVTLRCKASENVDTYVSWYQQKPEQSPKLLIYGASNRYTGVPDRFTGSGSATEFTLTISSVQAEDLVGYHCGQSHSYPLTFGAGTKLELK

>  <qualitative_label>
n

$$$$
>  <binder>
antibody 62B11 (antibody, V domains shown, Mouse hybridoma antibody) VH: EVKLVESGGGLVQPGGSLKLSCAASGFTFSSYTMSWVRQTPEKRLEWVAYISSGGGTTYYPDTVKGRFTVSRDNAKNTLYLQMSSLRSEDTAMYSCARRYYRGSSLWYFDVWGAGTTVTVSS VL: DIVMTQSPSSLTVTAGEKVTMSCKSSQSLFNSGSQKNFLTWYQQRPGQPPKLLIYWASTRESGVPDRFTGSGSGTDFTLTISSVQAEDLAVYYCQNDYSYPLTFGAGTKLELK

>  <qualitative_label>
y

$$$$
